Values from paper PMC11093982

- MEASUREMENT TARGET: AmQNS (quinolone synthase) (Aegle marmelos)
- EXPERIMENT: Surface plasmon resonance (SPR) AmQNS-substrate interaction studies
- Assay type: binding
- CONDITION DETAILS: SPR, AmQNS immobilized on GLM chip, 30 °C, Langmuir 1:1 model; read-out: KD (KD= kd /ka)
Exercise: for every item that follows, state its recorded pKd.
When answering, recall that pKd equals minus log10 of the concentration in mol/L, and write that number alone.

Incoming: Please give the documented pKd of CC(C)(COP(=O)(O)OP(=O)(O)OC[C@H]1O[C@@H](n2cnc3c(N)ncnc32)[C@H](O)[C@@H]1OP(=O)(O)O)[C@@H](O)C(=O)NCCC(=O)NCCSC(=O)c1ccccc1 [Benzoyl-CoA]
Outgoing: 5.55

Incoming: Please give the documented pKd of CCCCCCCCCCCCCCCC(=O)SCCNC(=O)CCNC(=O)[C@H](O)C(C)(C)COP(=O)(O)OP(=O)(O)OC[C@H]1O[C@@H](n2cnc3c(N)ncnc32)[C@H](O)[C@@H]1OP(=O)(O)O [Palmitoyl-CoA]
Outgoing: 7.04

Incoming: Please give the documented pKd of CC(C)(COP(=O)(O)OP(=O)(O)OC[C@H]1O[C@@H](n2cnc3c(N)ncnc32)[C@H](O)[C@@H]1OP(=O)(O)O)[C@@H](O)C(=O)NCCC(=O)NCCSC(=O)/C=C/c1ccc(O)cc1 [p-coumaroyl CoA]
Outgoing: 7.00

----------
- MEASUREMENT TARGET: AmQNS (quinolone synthase) (Aegle marmelos, UniProt M1HE54)
- Sequence (M1HE54 entry or part of it): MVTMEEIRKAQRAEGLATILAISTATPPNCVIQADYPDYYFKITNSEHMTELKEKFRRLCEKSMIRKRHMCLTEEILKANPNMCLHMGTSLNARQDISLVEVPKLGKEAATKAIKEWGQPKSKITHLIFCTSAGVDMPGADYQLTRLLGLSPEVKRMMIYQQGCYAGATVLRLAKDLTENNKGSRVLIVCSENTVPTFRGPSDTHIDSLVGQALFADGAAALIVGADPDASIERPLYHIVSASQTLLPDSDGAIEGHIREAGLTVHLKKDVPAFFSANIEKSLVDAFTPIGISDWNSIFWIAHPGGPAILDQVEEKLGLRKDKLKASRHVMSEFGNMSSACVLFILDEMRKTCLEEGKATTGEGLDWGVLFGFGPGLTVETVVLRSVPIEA
- EXPERIMENT: Surface plasmon resonance (SPR) AmQNS-substrate interaction studies
- Assay type: binding
- CONDITION DETAILS: SPR dissociation rate, AmQNS immobilized on GLM chip, 30 °C, Langmuir 1:1 model
QUANTITY NAME: dissociation rate constant (koff)

Incoming: Please give the documented dissociation rate constant (koff) of CC(C)(COP(=O)(O)OP(=O)(O)OC[C@H]1O[C@@H](n2cnc3c(N)ncnc32)[C@H](O)[C@@H]1OP(=O)(O)O)[C@@H](O)C(=O)NCCC(=O)NCCSC(=O)CC(=O)O [Malonyl-CoA]
Outgoing: 0.0134 s⁻¹

Incoming: Please give the documented dissociation rate constant (koff) of COc1cc(/C=C/C(=O)SCCNC(=O)CCNC(=O)[C@H](O)C(C)(C)COP(=O)(O)OP(=O)(O)OC[C@H]2O[C@@H](n3cnc4c(N)ncnc43)[C@H](O)[C@@H]2OP(=O)(O)O)cc(OC)c1O [Sinapoyl-CoA]
Outgoing: 0.0163 s⁻¹

Incoming: Please give the documented dissociation rate constant (koff) of CCCCCCCCCCCCCC(=O)SCCNC(=O)CCNC(=O)[C@H](O)C(C)(C)COP(=O)(O)OP(=O)(O)OC[C@H]1O[C@@H](n2cnc3c(N)ncnc32)[C@H](O)[C@@H]1OP(=O)(O)O [Myristoyl-CoA]
Outgoing: 0.00404 s⁻¹

Incoming: Please give the documented dissociation rate constant (koff) of CCCC(=O)SCCNC(=O)CCNC(=O)[C@H](O)C(C)(C)COP(=O)(O)OP(=O)(O)OC[C@H]1O[C@@H](n2cnc3c(N)ncnc32)[C@H](O)[C@@H]1OP(=O)(O)O [Butyryl-CoA]
Outgoing: 0.0495 s⁻¹

Incoming: Please give the documented dissociation rate constant (koff) of COc1cc(/C=C/C(=O)SCCNC(=O)CCNC(=O)[C@H](O)C(C)(C)COP(=O)(O)OP(=O)(O)OC[C@H]2O[C@@H](n3cnc4c(N)ncnc43)[C@H](O)[C@@H]2OP(=O)(O)O)ccc1O [Feruloyl-CoA]
Outgoing: 0.983 s⁻¹

Incoming: Please give the documented dissociation rate constant (koff) of CCCCCCCCCCCCCCCCCC(=O)SCCNC(=O)CCNC(=O)[C@H](O)C(C)(C)COP(=O)(O)OP(=O)(O)OC[C@H]1O[C@@H](n2cnc3c(N)ncnc32)[C@H](O)[C@@H]1OP(=O)(O)O [Stearoyl-CoA]
Outgoing: 0.00193 s⁻¹
